This collection of values is drawn from ChEMBL document CHEMBL1154224.

# assay.text: Clearance in cynomolgus monkey at 1 mg/kg, iv
# Type: ADME, organism-based, Macaca fascicularis
# Set-up: dose 1 mg/kg, route intravenous
# cond: in vivo
reported.metric: clearance (mL/min/kg)
The reply should be a number in mL/min/kg, with the unit left off.

**Q:** GET /values?readout=clearance&item= CCCC[C@H]1CN(CC2CCOCC2)C(=O)OC12CCN(C1(C)CCN(C(=O)c3c(C)ncnc3C)CC1)CC2
**A:** 19

* * *

# assay.text: Intrinsic clearance in human liver microsomes assessed per mg of protein
# Format: ADME, Microsome
# cond: liver microsomes
reported.metric: microsomal CLint (µL/min/mg)
Provide the reading as a plain figure in µL/min/mg.

**Q:** Item CCCCC1CN(CC2CCCCC2)C(=O)OC12CCN(C1CCN(C(=O)c3c(C)cccc3C)CC1)CC2 (configuration not stated) has what recorded microsomal CLint?
**A:** 307

**Q:** What measured microsomal CLint goes with CCCCC1CN(CC2CCOCC2)C(=O)OC12CCN(C1(C)CCN(C(=O)c3c(C)ncnc3C)CC1)CC2 (configuration not stated) ?
**A:** 17

**Q:** Recorded microsomal CLint for CCCC[C@H]1CN(CC2CCOCC2)C(=O)OC12CCN(C1(C)CCN(C(=O)c3c(C)ncnc3C)CC1)CC2 , please?
**A:** 12

**Q:** // returns reported microsomal CLint for input CCCC[C@H]1CN(CC2CCOCC2)C(=O)OC12CCN(C1(C)CCN(C(=O)c3c(C)cc(=O)oc3C)CC1)CC2
**A:** 36

**Q:** What does the data say about its microsomal CLint? Entry: CCCC[C@H]1CN(CC2CCOCC2)C(=O)OC12CCN(C1(C)CCN(C(=O)c3c(C)nc(C(F)(F)F)nc3C)CC1)CC2
**A:** 46

**Q:** // lookup microsomal CLint for CCCC[C@H]1CN(CC2CCOCC2)C(=O)OC12CCN(C1(C)CCN(C(=O)c3c(C)ccnc3C)CC1)CC2
**A:** 33

**Q:** Need microsomal CLint of CCCCC1N(CC2CCCCC2)C(=O)OC12CCN(C1CCN(C(=O)c3c(C)cccc3C)CC1)CC2 (configuration not stated) , thanks.
**A:** 675

**Q:** For the molecule CCCCC1N(CC2CCOCC2)C(=O)OC12CCN(C1(C)CCN(C(=O)c3c(C)ncnc3C)CC1)CC2 (configuration not stated) , what microsomal CLint is on record?
**A:** 27

**Q:** microsomal CLint lookup needed for CCCC[C@H]1CN(C)C(=O)OC12CCN(C1(C)CCN(C(=O)c3c(C)cc(C#N)nc3C)CC1)CC2 , thanks.
**A:** 28

**Q:** Field request: microsomal CLint | item: CCCCC1N(CC2CCCCC2)C(=O)OC12CCN(C1(C)CCN(C(=O)c3c(C)ncnc3C)CC1)CC2 (configuration not stated)
**A:** 162

**Q:** Look at this molecule and give its reported microsomal CLint. CCCCC1N(CC2CCCCC2)C(=O)OC12CCN(C1(C)CCN(C(=O)c3c(C)cccc3C)CC1)CC2 (configuration not stated)
**A:** 526

**Q:** I have this molecule here, CCCCC1CN(CC2CCOCC2)C(=O)OC12CCN(C1CCN(C(=O)c3c(C)cccc3C)CC1)CC2 (configuration not stated) , and I need its recorded microsomal CLint.
**A:** 164

**Q:** What does the data say about its microsomal CLint? Entry: CCCCC1CN(CC2CCOCC2)C(=O)OC12CCN(C1(C)CCN(C(=O)c3c(C)cc(C#N)nc3C)CC1)CC2 (racemic)
**A:** 42

**Q:** State the recorded microsomal CLint for this entry: CCCC[C@H]1CN(CC2CCC(F)(F)CC2)C(=O)OC12CCN(C1(C)CCN(C(=O)c3c(C)ncnc3C)CC1)CC2
**A:** 106

**Q:** Which microsomal CLint reading was recorded for the molecule CCCC[C@H]1CN(CCC2CCOCC2)C(=O)OC12CCN(C1(C)CCN(C(=O)c3c(C)ncnc3C)CC1)CC2 ?
**A:** 37

**Q:** // returns reported microsomal CLint for input CCCC[C@H]1CN(CC2CCCCO2)C(=O)OC12CCN(C1(C)CCN(C(=O)c3c(C)ccnc3C)CC1)CC2 (some centres not stated)
**A:** 53

**Q:** Which microsomal CLint value belongs to CCCC[C@@H]1CN(CC2CCOCC2)C(=O)OC12CCN(C1(C)CCN(C(=O)c3c(C)ncnc3C)CC1)CC2 ?
**A:** 17
